Reported fold change of affinity values follow for various binders
Target: T1, Human CD3eg linker (human)
T1 construct: Single chain: epsilon and gamma subunits of human CD3 joined by a 29-mer linker, Flag-tag at the C-terminus; also called recombinant human CD3
T1 chain: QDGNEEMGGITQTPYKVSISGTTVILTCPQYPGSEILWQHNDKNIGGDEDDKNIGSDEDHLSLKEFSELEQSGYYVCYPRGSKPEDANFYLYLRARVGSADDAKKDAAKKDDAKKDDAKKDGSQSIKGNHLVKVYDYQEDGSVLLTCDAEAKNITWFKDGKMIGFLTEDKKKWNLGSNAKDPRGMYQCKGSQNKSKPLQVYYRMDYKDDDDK
Test: Biacore SPR, vs template H183/L072
Number in fold, nothing else.

Binder	Experimental value
H183/L072 VH S30W (antibody, name in Kabat numbering, V domains shown) VH: QVQLVESGGGLVQPGRSLRLSCAASGFTFWNAWMHWVRQAPGKGLEWVAQIKDKGNAYAAYYAPSVKGRFTISRDDSKNSIYLQMNSLKTEDTAVYYCHYVHYASASTVLPAFGVDAWGQGTTVTVSS VL: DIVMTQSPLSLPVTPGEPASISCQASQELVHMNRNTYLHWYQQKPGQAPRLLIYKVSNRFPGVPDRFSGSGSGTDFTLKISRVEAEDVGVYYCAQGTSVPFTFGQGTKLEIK	1.3
H183/L072 VH F100gI (antibody, name in Kabat numbering, V domains shown) VH: QVQLVESGGGLVQPGRSLRLSCAASGFTFSNAWMHWVRQAPGKGLEWVAQIKDKGNAYAAYYAPSVKGRFTISRDDSKNSIYLQMNSLKTEDTAVYYCHYVHYASASTVLPAIGVDAWGQGTTVTVSS VL: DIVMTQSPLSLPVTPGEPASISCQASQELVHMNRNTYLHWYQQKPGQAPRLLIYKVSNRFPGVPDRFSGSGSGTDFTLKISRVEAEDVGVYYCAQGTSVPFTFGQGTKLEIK	1.2

// sample H183/L072 VH Y58K (antibody, name in Kabat numbering, V domains shown) VH: QVQLVESGGGLVQPGRSLRLSCAASGFTFSNAWMHWVRQAPGKGLEWVAQIKDKGNAYAAKYAPSVKGRFTISRDDSKNSIYLQMNSLKTEDTAVYYCHYVHYASASTVLPAFGVDAWGQGTTVTVSS VL: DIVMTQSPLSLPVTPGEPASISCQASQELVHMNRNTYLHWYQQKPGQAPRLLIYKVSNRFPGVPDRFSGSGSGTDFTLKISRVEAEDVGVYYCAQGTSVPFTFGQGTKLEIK , its fold change of affinity was 0.6
